- Species: Homo sapiens
- Protocol Summary: Cytotoxicity against normal PMBC cells in clonogenic assay
- Assay type: functional, cell-based
Test Readout: IC50
Please answer in the form of a number followed by its unit of measurement.

q: Item COc1cccc2c1C(=O)c1c(O)c3c(c(O)c1C2=O)C[C@@](O)(C(=O)CO)C[C@@H]3O[C@H]1C[C@H](N)[C@H](O)[C@H](C)O1 has what recorded IC50?
a: 39.4 µM

q: Here is the next molecule: CCOC(=O)c1cccnc1SNC(=O)Nc1ncccn1
a: 13.6 µM

* * *

- Tested on: Calu-1
- Protocol Summary: Cytotoxicity against HTB-54 lung carcinoma cell line
- Format: functional, cell-based
- Recorded Conditions: Homo sapiens
For each of the molecules below, state its log10 IC50.
A value of 2 here means IC50 of 100 in nM, since values are log10.

q: I would be grateful if you could share the reported log10 IC50 for CCOC(=O)c1cc([N+](=O)[O-])cnc1SNC(=O)Nc1ncccn1 .
a: 4.15

q: One more molecule: CCOC(=O)c1cccnc1S(=O)(=O)NC(=O)Nc1ncccn1
a: 3.20

q: Now consider CCOC(=O)c1cccnc1SNC(=O)Nc1ncccn1 and answer again.
a: 3.26

q: Then this molecule: COc1cccc2c1C(=O)c1c(O)c3c(c(O)c1C2=O)C[C@@](O)(C(=O)CO)C[C@@H]3O[C@H]1C[C@H](N)[C@H](O)[C@H](C)O1
a: 3.04

q: For CCOC(=O)c1cccnc1SNC(=O)Nc1nc(OC)cc(OC)n1 then?
a: 4.87

* * *

- System: HT-29
- Protocol Summary: Cytotoxicity against HT-29 colon carcinoma cell line
- Assay type: functional, cell-based
- Recorded Conditions: Homo sapiens
Test Readout: pIC50
Scale for pIC50: -log10 of concentration given in mol/L; no unit attached.

q: Look up pIC50: CCOC(=O)c1cccnc1SNC(=O)Nc1nc(OC)cc(OC)n1
a: 4.02

q: Next up: CCOC(=O)c1cccnc1SNC(=O)Nc1ncccn1
a: 5.32

q: # repeat for COc1cccc2c1C(=O)c1c(O)c3c(c(O)c1C2=O)C[C@@](O)(C(=O)CO)C[C@@H]3O[C@H]1C[C@H](N)[C@H](O)[C@H](C)O1 [DOXORUBICIN]
a: 6.15

* * *

- Test system: HT-29
- Protocol Summary: Cytotoxicity against HT-29 colon carcinoma cell line
- Type: functional, cell-based
- Recorded Conditions: Homo sapiens
Test Readout: IC50

q: IC50 for CCOC(=O)c1cc([N+](=O)[O-])cnc1SNC(=O)Nc1ncccn1 ?
a: > 100 µM

q: Same lookup for CCOC(=O)c1cccnc1S(=O)(=O)NC(=O)Nc1ncccn1 , please.
a: > 100 µM

q: Same read-out for CCOC(=O)c1cccnc1S(=O)(=O)NC(=O)Nc1ccc(Cl)cc1 ?
a: > 100 µM
